Readings of pIC50 for the listed compounds
- tgt: 6×HIS-tankyrase 1 (1091-1325) (Homo sapiens (Human))
- Sequence (O95271 1091-1325): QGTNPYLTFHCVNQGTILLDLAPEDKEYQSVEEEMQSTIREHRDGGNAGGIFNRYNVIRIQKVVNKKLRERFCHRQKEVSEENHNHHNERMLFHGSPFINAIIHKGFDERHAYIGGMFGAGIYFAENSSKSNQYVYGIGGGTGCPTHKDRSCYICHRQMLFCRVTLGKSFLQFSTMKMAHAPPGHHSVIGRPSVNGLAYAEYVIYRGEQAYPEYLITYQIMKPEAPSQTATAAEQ
- methodSummary: biochemical
- Format: biochemical
- details: […] enzyme, 400 nM NAD, 60 minutes at room temperature; read-out: TNKS1 IP IC50
To interpret pIC50, take it as minus log10 of a concentration measured in moles per litre.

{"compound": "C[C@H]1OC(=O)N([C@H]2CC[C@H](n3c(=O)[nH]c4cc(C#N)ccc43)CC2)[C@H]1c1ccccc1", "pIC50": 9.43}

Query :: What reported pIC50 corresponds to CC1(C)OC(=O)N(c2ccc(-c3cc(-c4cccnc4)cnc3F)cc2)[C@H]1c1ccccc1 on 6×HIS-tankyrase 1 (1091-1325) (Homo sapiens (Human))?
Result :: 6.71

Query :: What reported pIC50 corresponds to CC1(C)OC(=O)N([C@H]2CC[C@H](c3nnc(-c4ccccc4)o3)CC2)[C@H]1c1ccccc1 on 6×HIS-tankyrase 1 (1091-1325) (Homo sapiens (Human))?
Result :: 7.34

Query :: What reported pIC50 corresponds to C[C@@]1(c2ccccc2)CN([C@H]2CC[C@H](n3c(=O)[nH]c4cnccc43)CC2)C(=O)O1 (single isomer, unassigned) on 6×HIS-tankyrase 1 (1091-1325) (Homo sapiens (Human))?
Result :: 6.11

Value source: patent US9340549B2
